# System name: T1, human CTLA4 on CHO cells (human, UniProt P16410 36-223)
# T1 construct: whole, on cells; CHO cells stably expressing CTLA4; also called huCTLA4
# T1 sequence (P16410 36-223): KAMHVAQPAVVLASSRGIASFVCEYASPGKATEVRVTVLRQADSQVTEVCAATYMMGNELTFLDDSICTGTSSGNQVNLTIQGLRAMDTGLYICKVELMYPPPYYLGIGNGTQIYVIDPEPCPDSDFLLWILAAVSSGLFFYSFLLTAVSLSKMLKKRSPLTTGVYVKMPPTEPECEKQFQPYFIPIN
# Test method notes: flow cytometry, CHO cells stably expressing CTLA4
Collected MFI at 33.3 nM values appear next to each entry.

>  <Binder>
variant CD80 IgV-Fc E35D/M47V/I61V/L85M (Fc fusion, not shown: a dimerising Fc or GST) VIHVTKEVKEVATLSCGHNVSVEELAQTRIYWQKDKKMVLTMMSGDVNIWPEYKNRTIFDVTNNLSIVILALRPSDEGTYECVVMKYEKDAFKREHLAEVTLSVKAD

>  <MFI at 33.3 nM (MFI)>
28800

$$$$
>  <Binder>
variant CD80 IgV-Fc Q27H/E35D/M47I (Fc fusion, not shown: a dimerising Fc or GST) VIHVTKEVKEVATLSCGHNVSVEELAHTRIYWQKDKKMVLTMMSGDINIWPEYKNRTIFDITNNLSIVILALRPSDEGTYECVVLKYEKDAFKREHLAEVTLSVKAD

>  <MFI at 33.3 nM (MFI)>
27500

$$$$
